Reported pKd values follow for various binders
target: T1, human complement factor D purified from serum (human, UniProt P00746 26-253); experiment: SPR MX96
T1 construct: serum-purified (CompTech); also called hCFD-Comptech; CFD
T1 sequence (P00746 26-253): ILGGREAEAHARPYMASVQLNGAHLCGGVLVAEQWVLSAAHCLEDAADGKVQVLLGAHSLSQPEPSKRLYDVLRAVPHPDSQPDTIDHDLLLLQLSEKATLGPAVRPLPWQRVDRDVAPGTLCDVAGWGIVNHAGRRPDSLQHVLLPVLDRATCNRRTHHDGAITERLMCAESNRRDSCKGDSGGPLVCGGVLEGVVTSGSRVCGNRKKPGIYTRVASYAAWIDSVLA
// pKd is dimensionless: -log10 of concentration (M)

BINDER | pKd
KCD133 (antibody, V domains shown) VH: EVQLVESGGGLLQPKGSLKLSCAASGFTFNTYAMNWVRQAPGKGLEWVARIRSKSSNYATYYADSVKDRFTISRDDSQSMFYLEMNNLKTEDTAMYYCVRDRGYYYVMDYWGQGTSVTVSS VL: DIVLTQSPASLAVSLGQRATISCRASESVEYYGTSLMQWYQQKPGQPPKLLINAASNVESGVPARFSGSGSGTDFSLNIHPVEEDDIAMYFCQQSRKVPWTFGGGTKLEIK | 7.92

INPUT: pKd for KCD058 (antibody, V domains shown) VH: EVKLVESGGDLVQPGGSLKLSCAASGFTFSRYIMSWVRLTPEKRLEWVAFITNGGGNTYHPDTVKGRFTISRDNANNTLYLQMSSLKSEDTAIYYCARHDYYALDYWGQGTSVTVSS VL: DIQMTQSPSSLSASLGGKVTITCKASQDINKYIAWYQHKPGKGPRLLIHYTSTLQPGIPSRFSGSGSGRDYSFSISNLEPEDIATYYCLQYDNLLYTFGGGTKLEIK ?
OUTPUT: 8.00

INPUT: GET /values?readout=pKd&item= KCD009 (antibody, V domains shown, chimeric) VH: QIQLVQSGPELKKPGETVKISCKASGYIFRNYGMNWVKQGPGKGLKWMGWINTYTGEPTYADDFKGRFAFSLETSASTAYLQISNLKNEDTATYFCVRDGPGFAYWGQGTLVTVSA VL: DVLMTQTPLSLPVSLGDQASISCRSSLIIEHSDGNTYLEWYLQKPGQSPKLLIYKVSNRFSGVPDRFSGSGSGTDFTLKISRVEADDLGVYYCFQGSHVPVTFGAGTNLELK
OUTPUT: 8.25

INPUT: Could you tell me which pKd is on file for KCD126 (antibody, V domains shown) VH: EVQLQQSGAELVRPGSSVKMSCKTSGKTFTSHGINWVKQRPGQGLEWIGYIYIGNGYNEYNEKFKGKATLTSDTSSSTAYMQLSSLTFEDSAIYFCVRKAYGNYGFDDWGQGTTLTVSS VL: DIQMTQSPTSLSASLGESVSLTCRASQEISGNLNWLQQKPDGSIKRLIYAASTLDSGVPKRFSGSRSGSDYSLTISSLESEDFADYYCLQYANYPFTFGSGTKLEVK ?
OUTPUT: 9.47

INPUT: Look up pKd for this binder: KCD056 (antibody, V domains shown) VH: EVKLVESGGGLVQPGGSLKVSCAASGFTFSTYTMSWVRQTPEKRLEWVAYITNGGGSTYYPDTEKGRFTISRDNAKNTLYLQMSSLKSEDTAMYYCVRHDYYAMDYWGQGTSVTVSS VL: DIQMTQSPSSLSASLGGKVTITCKASQDINKYIAWYQHKPGKGPRLLIHYTSTLQPGIPSRFSGSGSGRDYSFSISNLEPEDIATYYCLQYDNLLYTFGGGTTLEIK
OUTPUT: 7.22

Cited source: patent US20180334496A1
